Origin of measurements: ChEMBL document CHEMBL4321828

Let's look at some compounds and their measured pIC50.
tested on: SK-MEL-2; test: Antiproliferative activity against human SK-MEL-2 cells assessed as reduction in cell viability incubated for 24 hrs by SRB assay; type: functional, cell-based; settings: SK-MEL-2, 24 h
pIC50: −log10 of the molar value.

COMPOUND	pIC50
COc1cc(/C=C/C(=O)N[C@H]2CCc3cc(OC)c(OC)c(OC)c3-c3ccc(SC)c(=O)cc32)ccc1O	7.78
COc1cccc2c1C(=O)c1c(O)c3c(c(O)c1C2=O)C[C@@](O)(C(=O)CO)C[C@@H]3O[C@H]1C[C@H](N)[C@H](O)[C@H](C)O1	7.93
CC/C=C\C/C=C\C/C=C\C/C=C\C/C=C\C/C=C\CCC(=O)N[C@H]1CCc2cc(OC)c(OC)c(OC)c2-c2ccc(SC)c(=O)cc21	5.70
COc1cc2c(c(OC)c1OC)-c1ccc(OC)c(=O)cc1[C@@H](NC(C)=O)CC2	8.22
COc1cc2c(c(OC)c1OC)-c1ccc(SC)c(=O)cc1[C@@H](NC(=O)CCC1=C(C)c3cc4[nH]c(cc5nc(cc6[nH]c(cc1n3)c(CCC(=O)N[C@H]1CCc3cc(OC)c(OC)c(OC)c3-c3ccc(SC)c(=O)cc31)c6C)C(C(C)O)=C5C)c(C(C)O)c4C)CC2 (some centres undefined)	5.55
CCCCCCCCCCCCCC[C@H]1OC(C)(C)O[C@H]1[C@@H](NC(=O)OC(C)(C)C)C(=O)N[C@H]1CCc2cc(OC)c(OC)c(OC)c2-c2ccc(SC)c(=O)cc21	6.89
COc1cc2c(c(OC)c1OC)-c1ccc(SC)c(=O)cc1[C@@H](NC(=O)[C@H](O)[C@@H](O)[C@H](O)[C@H](O)CO)CC2	7.91
COc1cc2c(c(OC)c1OC)-c1ccc(SC)c(=O)cc1[C@@H](NC(=O)Cc1ccccc1Nc1c(Cl)cccc1Cl)CC2	5.98
C=C(C)[C@@H]1CC=C(C(=O)N[C@H]2CCc3cc(OC)c(OC)c(OC)c3-c3ccc(SC)c(=O)cc32)CC1	7.75
